molecular target: panel of 255 wild-type kinases (Homo sapiens, UniProt Q04912); experiment: Kinase panel profiling at 1 µmol/L (MSA or IMAP), percentage inhibition; assay type: biochemical; conditions: kinase RON; 1 µmol/L single concentration; read-out: %-inhibition at 1 µmol/L, RON
Sequence (Q04912 25-1400): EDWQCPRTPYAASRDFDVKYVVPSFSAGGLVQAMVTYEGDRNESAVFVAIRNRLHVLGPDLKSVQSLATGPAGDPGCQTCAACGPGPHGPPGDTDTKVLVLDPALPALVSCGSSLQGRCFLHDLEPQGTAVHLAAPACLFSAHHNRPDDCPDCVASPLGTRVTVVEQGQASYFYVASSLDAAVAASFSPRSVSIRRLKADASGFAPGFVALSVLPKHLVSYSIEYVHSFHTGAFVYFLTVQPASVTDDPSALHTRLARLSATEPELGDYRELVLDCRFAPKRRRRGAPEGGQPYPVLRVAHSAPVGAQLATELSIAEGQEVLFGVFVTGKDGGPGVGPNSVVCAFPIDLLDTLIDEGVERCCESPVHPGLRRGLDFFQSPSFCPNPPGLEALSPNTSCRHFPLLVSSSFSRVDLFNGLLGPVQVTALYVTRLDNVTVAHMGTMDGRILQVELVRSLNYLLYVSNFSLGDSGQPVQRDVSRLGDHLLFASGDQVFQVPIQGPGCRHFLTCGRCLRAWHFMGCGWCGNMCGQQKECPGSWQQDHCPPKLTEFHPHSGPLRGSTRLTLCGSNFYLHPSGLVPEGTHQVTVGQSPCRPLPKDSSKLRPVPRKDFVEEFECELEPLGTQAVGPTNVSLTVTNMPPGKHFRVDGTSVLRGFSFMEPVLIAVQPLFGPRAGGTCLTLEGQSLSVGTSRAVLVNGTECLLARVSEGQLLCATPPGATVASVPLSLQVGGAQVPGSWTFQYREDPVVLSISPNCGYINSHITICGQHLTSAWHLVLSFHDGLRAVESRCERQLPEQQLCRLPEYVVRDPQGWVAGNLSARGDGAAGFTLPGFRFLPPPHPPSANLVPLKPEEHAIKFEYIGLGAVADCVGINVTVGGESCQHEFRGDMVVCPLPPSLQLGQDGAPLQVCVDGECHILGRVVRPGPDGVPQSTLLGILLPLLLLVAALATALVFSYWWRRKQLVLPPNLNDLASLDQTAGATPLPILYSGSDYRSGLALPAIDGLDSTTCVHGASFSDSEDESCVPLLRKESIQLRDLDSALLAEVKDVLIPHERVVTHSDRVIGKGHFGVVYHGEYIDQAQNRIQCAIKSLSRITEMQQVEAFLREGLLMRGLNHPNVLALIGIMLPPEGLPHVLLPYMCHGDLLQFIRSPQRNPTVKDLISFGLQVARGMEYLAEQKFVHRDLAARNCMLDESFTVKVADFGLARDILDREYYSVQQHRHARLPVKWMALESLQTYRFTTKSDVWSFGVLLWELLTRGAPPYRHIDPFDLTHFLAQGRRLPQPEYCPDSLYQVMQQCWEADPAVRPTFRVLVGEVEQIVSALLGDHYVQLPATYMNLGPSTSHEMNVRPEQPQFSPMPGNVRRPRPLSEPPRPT
Can you tell me inhibition at 1 µM for the items I'm about to list?
Express it in %; write the number only.

**Q:** Name the reported inhibition at 1 µM value associated with the compound CCc1nc(C(N)=O)c(Nc2ccc(N3CCC(N4CCN(C)CC4)CC3)c(OC)c2)nc1NC1CCOCC1
**A:** 98

**Q:** Returns the measured inhibition at 1 µM for the input compound. Input: COC(=O)N[C@@H](C)CNc1nccc(-c2cn(C(C)C)nc2-c2cc(Cl)cc(NS(C)(=O)=O)c2F)n1
**A:** -1.42

**Q:** Look at this compound and give its reported inhibition at 1 µM. CCn1c(=O)c(-c2cc(NC(=O)Nc3ccccc3)c(F)cc2Br)cc2cnc(NC)cc21
**A:** 1.39

**Q:** Returns the measured inhibition at 1 µM for the input compound. Input: Cc1cc(Nc2ncnc3ccc(NC4=NC(C)(C)CO4)cc23)ccc1Oc1ccn2ncnc2c1
**A:** 2.23

**Q:** # lookup: inhibition at 1 µM of C=CC(=O)N1CCC([C@@H]2CCNc3c(C(N)=O)c(-c4ccc(Oc5ccccc5)cc4)nn32)CC1
**A:** 5

**Q:** Please report the recorded inhibition at 1 µM for O=C(Nc1cnn2ccc(N3CCC[C@@H]3c3cc(F)ccc3F)nc12)N1CC[C@H](O)C1 .
**A:** 2.82

**Q:** Record request: inhibition at 1 µM value, item CO[C@]1(C(=O)N[C@@H](C)c2ccc(-n3cc(F)cn3)nc2)CC[C@H](c2nc(C)cc(Nc3cc(C)[nH]n3)n2)CC1
**A:** 2.6

----------
I'd appreciate it if you could supply IC50 values for the items below.
tested on: 134 cancer cell lines; assay: Cell viability assay (ATPlite, 72 hours), IC50 on cancer cell line panel; conditions: Homo sapiens, CAL-27, read-out: IC50 in cell proliferation assay
Field: numeric (nM). Do not append units.

**Q:** Reported IC50, compound C=CC(=O)N1CCC[C@@H](n2nc(-c3ccc(Oc4ccccc4)cc3)c3c(N)ncnc32)C1 [ibrutinib] : ____
**A:** 374

**Q:** GET /values?readout=IC50&item= CCN1C(=O)N(c2c(F)c(OC)cc(OC)c2F)Cc2cnc3[nH]c(CN4CCOCC4)cc3c21 [pemigatinib]
**A:** 2650

**Q:** Which IC50 value belongs to Cn1cc(-c2cc3c(N4CCN(c5ncc([C@@](C)(N)c6ccc(F)cc6)cn5)CC4)ncnn3c2)cn1 [avapritinib] ?
**A:** 11000

**Q:** Which IC50 is listed for C=CC(=O)N1CCC([C@@H]2CCNc3c(C(N)=O)c(-c4ccc(Oc5ccccc5)cc4)nn32)CC1 [zanubrutinib] ?
**A:** 1370

----------
tested on: 134 cancer cell lines; assay: Cell viability assay (ATPlite, 72 hours), IC50 on cancer cell line panel; settings: Homo sapiens, DLD-1, read-out: IC50 in cell proliferation assay
For each record, write down the corresponding IC50.
Quick note: give the figure in µM, leave out the unit.

**Q:** Find the measured IC50: item CCN1C(=O)N(c2c(F)c(OC)cc(OC)c2F)Cc2cnc3[nH]c(CN4CCOCC4)cc3c21 [pemigatinib] , target or system 134 cancer cell lines.
**A:** 2.27

**Q:** Could you share what IC50 was measured for Cn1cc(-c2cc3c(N4CCN(c5ncc([C@@](C)(N)c6ccc(F)cc6)cn5)CC4)ncnn3c2)cn1 [avapritinib] , tested on 134 cancer cell lines?
**A:** 15.2
